- Assay remarks: protein stability index of a GFP-peptide fusion (GPS, HEK-293T) (PSI 1-6); higher = more stable;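 further: 24-mer peptide tiles fused after GFP, lentivirally expressed, FACS-sorted into six equal bins by GFP/DsRed ratio, decoded by Illumina sequencing, PSI is the read-weighted mean bin number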
- Experimental conditions: treatment: MLN4924 1 uM, 8 h; c terminus: a fixed tail appended
Each entry below carries its recorded protein stability index.

Worked set:
item_sequence="SMISMGLFSIAPLIYGSMEMFPAA [JAGN1]" readout_name="protein stability index" assay_value=3.23
item_sequence="CASFIRTRLLLQFTQPQQTSFALE [C8orf76]" readout_name="protein stability index" assay_value=2.7
item_sequence="QAPPADFIPAHVAFDKKVLKFDAY [EFHC1]" readout_name="protein stability index" assay_value=2.98
item_sequence="VLHIVASLIILHLSGATKKGTEKQ [NETO1]" readout_name="protein stability index" assay_value=2.9
item_sequence="HLNETVKAPDIECVLRCSVLEIEQ [FEM1B]" readout_name="protein stability index" assay_value=3.13
item_sequence="TLASAGGPDNLVLLNPEKYKAKSR [ADD1]" readout_name="protein stability index" assay_value=4.31
item_sequence="QFTKPNASLGDVQSGATISMPCST [SASS6]" readout_name="protein stability index" assay_value=4.06
item_sequence="KSPDNEDSGDSKDIRLTLMEEVLL [GOLPH3L]" readout_name="protein stability index" assay_value=4.07

Value of measured protein stability index for the entry LGSDDEEQEDPADYCKGGYHPVKI [SRPK2] : 4.67

Value of measured protein stability index for the entry VTDCKHTEDVGVVCSDKRIPGFKF [LOXL2] : 3.77

----------
- Assay remarks: protein stability index of a GFP-peptide fusion (GPS, HEK-293T) (PSI 1-6); higher = more stable
- Experimental conditions: treatment: MLN4924 1 uM, 8 h; c terminus: a fixed tail appended
Readout name: protein stability index
Could you respond with only the numeric value?

Worked set:
item_sequence="GYRVSAALEEADKMFLRTREPALD [EID1]" readout_name="protein stability index" assay_value=3.89
item_sequence="HPVLHKEEKQHLERLNKEYQEIFQ [TRIM43]" readout_name="protein stability index" assay_value=4.06
item_sequence="LDSQTEIYQYVQNSMAPHPARDYV [DLC1]" readout_name="protein stability index" assay_value=3.09
item_sequence="SGLLEELNAEAGHLDPGFLASDKT [C18orf25]" readout_name="protein stability index" assay_value=4.76
item_sequence="PSSSGHLADSDTLSSAEENEPSQA [C18orf25]" readout_name="protein stability index" assay_value=5.52
item_sequence="NLDKMADNLLAAADKYALERLKVM [SPOPL]" readout_name="protein stability index" assay_value=3.04

Value of measured protein stability index for the entry PHAPPFAGGHPAQLGLGRGASTFK [JUNB] : 4.34

Value of measured protein stability index for the entry TQHHFAFQNAERAFKAAALIQRWY [PPEF2] : 3.08

----------
- Assay remarks: protein stability index of a GFP-peptide fusion (GPS, HEK-293T) (PSI 1-6); higher = more stable
- Experimental conditions: treatment: DMSO; c terminus: a fixed tail appended
Readout name: protein stability index
Could you respond with only the numeric value?

item_sequence="VGCKGSKAGIEQEGYWLPGDEISI [ZMYND11]" assay_value=3.18

Now, please, on to the next sequence.
Value of measured protein stability index for the entry RKEAYGKPVDIWACGVILYILLVG [CAMK2B] : 2.95
